Test system: HOP-62
assayRemarks: NCI tumour cell line growth inhibition, 48 h
Calls of active or inactive are those of the source. No stated cut-off is given here; in the data, active = GI50 up to about 1.1 µM and inactive = higher.
Classes used: active, inactive

| compound | classification |
| --- | --- |
| CCC1=CC2CN3CCc4c([nH]c5ccccc45)C(C(=O)OC)(C2)C13 (stereo not drawn) | inactive |
| O=C(O)C1CSC2(CCCN(Cc3ccccc3)C2)N1 (stereo not drawn) | inactive |
| CCCCN(CCCC)CC(C(=O)Nc1ccc([N+](=O)[O-])cc1[N+](=O)[O-])/C(C)=N\NC(=O)c1ccncc1 (stereo not drawn) | inactive |
| c1ccc(C(=NCCC2CNc3ccccc32)c2ccccc2)cc1 (stereo not drawn) | inactive |
| COC(=O)Nc1nc(=O)c2cc(OC)c(OC)cc2[nH]1 | inactive |
| COc1ccc2[nH]c3c([N+](=O)[O-])ccc(NCCN(C)C)c3/c(=N/CCN(C)C)c2c1 | active |
| Cc1cccc2nc(-c3ccccc3)cc(=O)n12 | inactive |
| CCOC1c2cc(OC)c(OC)cc2-c2ccc3ccccc3c2N1C (stereo not drawn) | inactive |
| Cc1ccc(Nc2cc(=O)[nH]c(=O)[nH]2)cc1CS | inactive |
| C=CC(=O)C#Cc1cnc(OC)nc1OC | inactive |
| O=C(O)Cc1cccc2c(=O)cc(-c3ccccc3)oc12 [MITOFLAXONE] | inactive |
| CC1=C(C(=O)NCC(C)O)CC(C(=O)NCC(C)O)=C(C)N1 (stereo not drawn) | inactive |
| Cc1ccc(C2=CC(=O)/C(=C\C(=O)c3ccc(Cl)cc3)O2)cc1 | inactive |
| O=C1CC2[C@@H](N3CCCC3)CCC(N1Cc1ccccc1)C2(O)O (stereo partly drawn) | inactive |
| O=C(/C=C(\Nc1ccccc1O)c1ccc(Br)cc1)C(Cl)(Cl)Cl | inactive |
| CCc1nnc(CC)n1N1C(=O)CCC1=O | inactive |
| O=C(O)C1SCCS1 | inactive |
| O=C1NC2(CCCCC2)C(=O)N1CCN(CCCl)CCCl [SPIROMUSTINE] | inactive |
| Cc1ccc(NC(=O)c2ccccc2C(=O)O)cc1C | inactive |
| CCN(CCN(CC)C(=O)Nc1ccccc1)C(=O)Nc1ccccc1 | inactive |
| COc1cc(C(c2cc(OC)c(OC)c(OC)c2)N2C(=O)CCC2C(=O)O)cc(OC)c1OC (stereo not drawn) | inactive |
| O=C1CCCC/C1=C\c1ccc(Cl)c(Cl)c1 | inactive |
| COC(=O)c1ccccc1C#CC#Cc1ccccc1C(=O)OC | inactive |
